FYI, the data here is from the Human Domainome abundance scans (Beltran et al. 2025).

Assignment: determine reported abundance fitness for the given variants.
B1: Intersectin-2, residues 1129 to 1183; numbered along this chain, Q9NZM3 (parent)
chain: VCQVIAMYDYAANNEDELSFSKGQLINVMNKDDPDWWQGEINGVTGLFPSNYVKM

Variants of: B1
Experiment: abundance fitness (aPCA) (normalised: wild type 0, dead -1); higher = more abundant; growth selection in yeast, the domain comes from the species named
Conditions: Homo sapiens
Output spec: single numeric token, no unit.

// sample VCQVIAMHDYAANNEDELSFSKGQLINVMNKDDPDWWQGEINGVTGLFPSNYVKM [Y8H] , its abundance fitness was -0.162

Just so you know, measured abundance fitness for VCQVIAMYDYAANQEDELSFSKGQLINVMNKDDPDWWQGEINGVTGLFPSNYVKM [N14Q] came out at -0.01

VCQVIAMYDYAANNEDELSFSKGQLINVMNKDDPDWWQGSINGVTGLFPSNYVKM [E40S] has a reported abundance fitness of 0.003

So for VCQKIAMYDYAANNEDELSFSKGQLINVMNKDDPDWWQGEINGVTGLFPSNYVKM [V4K] , the logged abundance fitness turned out to be -0.62

Lab note: VCQVIAMYDYAANNEDELSFSKGQLINVMNKDDPDWWQGEINGVTGLAPSNYVKM [F48A] gave abundance fitness of -0.69

Record VCQVIAMYDYAANNEDELSFSKGQLIYVMNKDDPDWWQGEINGVTGLFPSNYVKM [N27Y] . Reported abundance fitness: -0.081

Record VCQVIAMYDYAANNEDELSFSKGQLINVMNKDDHDWWQGEINGVTGLFPSNYVKM [P34H] . Reported abundance fitness: -0.194

Entry under test: VCQVIAMYDPAANNEDELSFSKGQLINVMNKDDPDWWQGEINGVTGLFPSNYVKM [Y10P] . Its abundance fitness was -0.913

# variant VCQVHAMYDYAANNEDELSFSKGQLINVMNKDDPDWWQGEINGVTGLFPSNYVKM [I5H] ; its abundance fitness = -0.188

response.value for VCQVIAMYDYAAYNEDELSFSKGQLINVMNKDDPDWWQGEINGVTGLFPSNYVKM [N13Y] (field: abundance fitness) = -0.141

What the record says about VCQVIAMYDYAANNEDELSFSKGQLINVMNKDDPDWWQGEINKVTGLFPSNYVKM [G43K] : abundance fitness is 0.029

The variant VWQVIAMYDYAANNEDELSFSKGQLINVMNKDDPDWWQGEINGVTGLFPSNYVKM [C2W] showed abundance fitness equal to -0.122

# abundance fitness (variant: VCQVIAMYDYAANNEDELSFSKGQLINVMKKDDPDWWQGEINGVTGLFPSNYVKM [N30K] ) is -0.001
